- TARGET OR TEST SYSTEM: T1, UNK ZnF1-3 (human, UniProt Q9C0B0 31-174)
- T1 sequence: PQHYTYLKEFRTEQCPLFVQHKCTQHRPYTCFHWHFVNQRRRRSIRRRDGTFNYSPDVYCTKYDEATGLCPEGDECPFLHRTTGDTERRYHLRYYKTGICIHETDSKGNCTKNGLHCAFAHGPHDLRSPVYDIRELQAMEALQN
- TEST DETAILS: nsRBNS (natural sequence RNA bind-n-seq); RBNS binding buffer (assumed for nsRBNS): 25 mM Tris pH 7.5, 150 mM KCl, 3 mM MgCl2, 0.01% Triton X-100, 500 ug/ml BSA, 20 U/ml SUPERase-In, 4 C; UNK is unkempt and MSI1 is Musashi-1; names of the RNAs are library labels; protein concentration not given here; high values mean tight binding
In all, about 24,000 sequences were measured (“enrichment r”: median about 0.99, highest 2% from about 3.7 on). The sample holds the highest values, similar sequences and a random draw of the others, so the mix is not that of the screen.
ENDPOINT LABEL: binding signal (enrichment R)
Use enrichment R as the unit, but write only the number.

• chr2:183789671:183789672:-_ENSG00000061676_ENST00000360982|hu_hu|motif|central (ssRNA) RNA: GGGAGUUCUACAGUCCGACGAUCUGGCAGGUACACUUGAAUUUCAAAAAUUUAAAACAUAUAUAAAAAGUGGUUAGGGACGGACAUUUGUAUCAACAGUUGAUAAAUGUCUAAGAUUGUUUAUUAUACAGCAGGGUACAAUGGCAACAGAGGAUUGAGCAUCA = 6.64

Please list binding signal recorded for the binder chr8:74858975:74858976:-_ENSG00000154582_ENST00000284811|hu_mus|hu_hu_hu_mus_True|8_48 (ssRNA) RNA: GGGAGUUCUACAGUCCGACGAUCGACCUUGUAGGUAAAAUACAUGCACACUUUUGAUAGCACAUGUGAGGGGAUCUCUCUAAAAUUGACCUCAUUGGUUUCAUUCUCAGCAAACUGACCUGGACCACUCAACAUGGCCUUUAUCAACAGAGGAUUGAGCAUCA
0.645

Please list binding signal recorded for the binder chr17:56552419:56552420:-_ENSMUSG00000013236_ENSMUST00000086828|mus_mus|mus_mus_mus_hu_False|58_58 (ssRNA) RNA: GGGAGUUCUACAGUCCGACGAUCAAAAAAUACACUAUUUAAAAAAAAUGAAAUGUCACGGGAUACAGUUACACUGACACUAUUAAAAGAAAGCUGGAUUCUGGUCCCAGCCCAGUGUCCCCAGGCUGCAGAGCGGGGAGGAGCCAACAGAGGAUUGAGCAUCA
3.59

Cited source for all entries: paper PMC12136788
